# target or test system: T1, Cyno CD47 ECD protein, His-tagged, monomer (cyno)
# T1 construct: extracellular domain; also called cynomolgus CD47
# assay notes: ProteOn SPR; cyno KD / human KD
Reported values of KD Ratio Cyno/Human for individual entries
property name: KD Ratio Cyno/Human

binder="C47B231 (antibody, V domains shown, human IgG2sigma/kappa) VH: EVQLVQSGAEVKKPGESLKISCKGSGYSFTNYWIGWVRQMPGKGLEWMGIIYPGDSDTRYSPSFQGQVTISADKSISTAYLQWSSLKASDTAVYYCARVGRFASHQLDYWGQGTLVTVSS VL: EIVLTQSPATLSLSPGERATLSCRASQSVNKALAWYQQKPGQAPRLLIYGASNRATGIPARFSGSGSGTDFTLTISSLEPEDFAVYYCQQGKGWPFTFGQGTKVEIK" numeric_readout=1.1
binder="C47B227 (antibody, V domains shown, human IgG2sigma/kappa) VH: EVQLVQSGAEVKKPGESLKISCKGSGYSFDDYWIGWVRQMPGKGLEWMGIIYPGDSDTRYSPSFQGQVTISADKSISTAYLQWSSLKASDTAVYYCARVGRFASHQLDYWGQGTLVTVSS VL: EIVLTQSPATLSLSPGERATLSCRASQSVGSRLAWYQQKPGQAPRLLIYWASTRATGIPARFSGSGSGTDFTLTISSLEPEDFAVYYCQQGAYWPFTFGQGTKVEIK" numeric_readout=0.6
binder="C47B224 (antibody, V domains shown, human IgG2sigma/kappa) VH: EVQLVQSGAEVKKPGESLKISCKGSGYSFTDYWIGWVRQMPGKGLEWMGIIYPGDSDTRYSPSFQGQVTISADKSISTAYLQWSSLKASDTAVYYCARVGRFASHQLDYWGQGTLVTVSS VL: EIVLTQSPATLSLSPGERATLSCRASQSVSNRQAWYQQKPGQAPRLLIHSASNRATGIPARFSGSGSGTDFTLTISSLEPEDFAVYYCQQGRSWPFTFGQGTKVEIK" numeric_readout=0.9
